# Tested on: Escherichia coli
# assay-method-text: Antibacterial activity against Escherichia coli DSM 30083 assessed as growth inhibition after 18 hrs
# Format: functional
# condition-context: DSM 30083, 18 h
Peptide text beside a SMILES is read from it. * marks the point of attachment. Myristoyl = CCCCCCCCCCCCCC(=O)*; Lauroyl = CCCCCCCCCCCC(=O)*; Hexanoyl = CCCCCC(=O)*; Butyryl = CCCC(=O)*
Threshold 20 µM: MIC strictly smaller gives satisfied, otherwise not satisfied.

Completed entries (count: 2):
molecule	label
CCCCCCCCCCCC(=O)NCCCC[C@H](N)C(=O)N[C@@H](CCCNC(=N)N)C(=O)N[C@@H](Cc1c[nH]c2ccccc12)C(=O)N[C@@H](CCCNC(=N)N)C(=O)N[C@@H](Cc1c[nH]c2ccccc12)C(=O)N[C@@H](CCCNC(=N)N)C(=O)N[C@@H](Cc1c[nH]c2ccccc12)C(N)=O (H-K(Lauroyl)RWRWRW-NH2)	satisfied
CCCCCCCCCCCCCC(=O)NCCCC[C@H](NC(=O)[C@H](Cc1c[nH]c2ccccc12)NC(=O)[C@H](CCCNC(=N)N)NC(=O)[C@H](Cc1c[nH]c2ccccc12)NC(=O)[C@H](CCCNC(=N)N)NC(=O)[C@H](Cc1c[nH]c2ccccc12)NC(=O)[C@@H](N)CCCNC(=N)N)C(N)=O (H-RWRWRWK(Myristoyl)-NH2)	satisfied

## Input For this molecule, is MIC lower than 20 µM? CCCCCC(=O)NCCCC[C@H](N)C(=O)N[C@@H](CCCNC(=N)N)C(=O)N[C@@H](Cc1c[nH]c2ccccc12)C(=O)N[C@@H](CCCNC(=N)N)C(=O)N[C@@H](Cc1c[nH]c2ccccc12)C(=O)N[C@@H](CCCNC(=N)N)C(=O)N[C@@H](Cc1c[nH]c2ccccc12)C(N)=O (H-K(Hexanoyl)RWRWRW-NH2)
## Output satisfied

## Input For this molecule, is MIC lower than 20 µM? CCCCCCCCCCCCCC(=O)NCCCC[C@H](N)C(=O)N[C@@H](CCCNC(=N)N)C(=O)N[C@@H](Cc1c[nH]c2ccccc12)C(=O)N[C@@H](CCCNC(=N)N)C(=O)N[C@@H](Cc1c[nH]c2ccccc12)C(=O)N[C@@H](CCCNC(=N)N)C(=O)N[C@@H](Cc1c[nH]c2ccccc12)C(N)=O (H-K(Myristoyl)RWRWRW-NH2)
## Output not satisfied

## Input For this molecule, is MIC lower than 20 µM? CCCC(=O)NCCCC[C@H](NC(=O)[C@H](Cc1c[nH]c2ccccc12)NC(=O)[C@H](CCCNC(=N)N)NC(=O)[C@H](Cc1c[nH]c2ccccc12)NC(=O)[C@H](CCCNC(=N)N)NC(=O)[C@H](Cc1c[nH]c2ccccc12)NC(=O)[C@@H](N)CCCNC(=N)N)C(N)=O (H-RWRWRWK(Butyryl)-NH2)
## Output not satisfied

## Input For this molecule, is MIC lower than 20 µM? CC(=O)NCCCC[C@H](NC(=O)[C@H](Cc1c[nH]c2ccccc12)NC(=O)[C@H](CCCNC(=N)N)NC(=O)[C@H](Cc1c[nH]c2ccccc12)NC(=O)[C@H](CCCNC(=N)N)NC(=O)[C@H](Cc1c[nH]c2ccccc12)NC(=O)[C@@H](N)CCCNC(=N)N)C(N)=O (H-RWRWRWK(Ac)-NH2)
## Output not satisfied

## Input For this molecule, is MIC lower than 20 µM? N=C(N)NCCC[C@H](NC(=O)[C@H](Cc1c[nH]c2ccccc12)NC(=O)[C@H](CCCNC(=N)N)NC(=O)[C@H](Cc1c[nH]c2ccccc12)NC(=O)[C@@H](N)CCCNC(=N)N)C(=O)N[C@@H](Cc1c[nH]c2ccccc12)C(=O)N[C@@H](CCCCN)C(N)=O (H-RWRWRWK-NH2)
## Output satisfied

====

# System: Acinetobacter baumannii
# assay-method-text: Antibacterial activity against Acinetobacter baumannii DSM 30007 assessed as growth inhibition after 18 hrs
# Type: functional
# condition-context: DSM 30007, 18 h
Peptide text beside a SMILES is read from it. * marks the point of attachment. Myristoyl = CCCCCCCCCCCCCC(=O)*; Lauroyl = CCCCCCCCCCCC(=O)*; Hexanoyl = CCCCCC(=O)*
Property: MIC; scope: individual molecules
Kindly provide the numeric value in µM only, without the unit symbol.

Answered examples (3):
molecule	result-units	MIC
CCCCCC(=O)NCCCC[C@H](N)C(=O)N[C@@H](CCCNC(=N)N)C(=O)N[C@@H](Cc1c[nH]c2ccccc12)C(=O)N[C@@H](CCCNC(=N)N)C(=O)N[C@@H](Cc1c[nH]c2ccccc12)C(=O)N[C@@H](CCCNC(=N)N)C(=O)N[C@@H](Cc1c[nH]c2ccccc12)C(N)=O (H-K(Hexanoyl)RWRWRW-NH2)	µM	9
CCCCCC(=O)NCCCC[C@H](NC(=O)[C@H](Cc1c[nH]c2ccccc12)NC(=O)[C@H](CCCNC(=N)N)NC(=O)[C@H](Cc1c[nH]c2ccccc12)NC(=O)[C@H](CCCNC(=N)N)NC(=O)[C@H](Cc1c[nH]c2ccccc12)NC(=O)[C@@H](N)CCCNC(=N)N)C(N)=O (H-RWRWRWK(Hexanoyl)-NH2)	µM	19
CCCCCCCCCCCC(=O)NCCCC[C@H](NC(=O)[C@H](Cc1c[nH]c2ccccc12)NC(=O)[C@H](CCCNC(=N)N)NC(=O)[C@H](Cc1c[nH]c2ccccc12)NC(=O)[C@H](CCCNC(=N)N)NC(=O)[C@H](Cc1c[nH]c2ccccc12)NC(=O)[C@@H](N)CCCNC(=N)N)C(N)=O (H-RWRWRWK(Lauroyl)-NH2)	µM	9

# context switch: different molecule, same MIC
## Input Let me know recorded MIC for CCCCCCCCCCCCCC(=O)NCCCC[C@H](N)C(=O)N[C@@H](CCCNC(=N)N)C(=O)N[C@@H](Cc1c[nH]c2ccccc12)C(=O)N[C@@H](CCCNC(=N)N)C(=O)N[C@@H](Cc1c[nH]c2ccccc12)C(=O)N[C@@H](CCCNC(=N)N)C(=O)N[C@@H](Cc1c[nH]c2ccccc12)C(N)=O (H-K(Myristoyl)RWRWRW-NH2) , thanks.
## Output 35

====

# Tested on: Pseudomonas aeruginosa
# assay-method-text: Antibacterial activity against Pseudomonas aeruginosa DSM 50071 assessed as growth inhibition after 18 hrs
# Assay type: functional
# condition-context: DSM 50071, 18 h
Peptide text beside a SMILES is read from it. * marks the point of attachment. Decanoyl = CCCCCCCCCC(=O)*
Property: MIC; scope: individual compounds

## Input Let me know recorded MIC for CCCCCCCCCC(=O)NCCCC[C@H](N)C(=O)N[C@@H](CCCNC(=N)N)C(=O)N[C@@H](Cc1c[nH]c2ccccc12)C(=O)N[C@@H](CCCNC(=N)N)C(=O)N[C@@H](Cc1c[nH]c2ccccc12)C(=O)N[C@@H](CCCNC(=N)N)C(=O)N[C@@H](Cc1c[nH]c2ccccc12)C(N)=O (H-K(Decanoyl)RWRWRW-NH2) , thanks.
## Output 9 µM

## Input Let me know recorded MIC for CCCCCCCCCC(=O)NCCCC[C@H](NC(=O)[C@H](Cc1c[nH]c2ccccc12)NC(=O)[C@H](CCCNC(=N)N)NC(=O)[C@H](Cc1c[nH]c2ccccc12)NC(=O)[C@H](CCCNC(=N)N)NC(=O)[C@H](Cc1c[nH]c2ccccc12)NC(=O)[C@@H](N)CCCNC(=N)N)C(N)=O (H-RWRWRWK(Decanoyl)-NH2) , thanks.
## Output 9 µM

## Input Let me know recorded MIC for CC(=O)NCCCC[C@H](N)C(=O)N[C@@H](CCCNC(=N)N)C(=O)N[C@@H](Cc1c[nH]c2ccccc12)C(=O)N[C@@H](CCCNC(=N)N)C(=O)N[C@@H](Cc1c[nH]c2ccccc12)C(=O)N[C@@H](CCCNC(=N)N)C(=O)N[C@@H](Cc1c[nH]c2ccccc12)C(N)=O (H-K(Ac)RWRWRW-NH2) , thanks.
## Output > 100 µM

====

Property: MIC; scope: individual compounds
# Tested on: Staphylococcus aureus
# assay-method-text: Antibacterial activity against Staphylococcus aureus DSM 20231 assessed as growth inhibition after 18 hrs
# Format: functional
# condition-context: DSM 20231, 18 h
Peptide text beside a SMILES is read from it. * marks the point of attachment. Myristoyl = CCCCCCCCCCCCCC(=O)*; Lauroyl = CCCCCCCCCCCC(=O)*; Octanoyl = CCCCCCCC(=O)*
Kindly provide the numeric value in µM only, without the unit symbol.

compound	target-of-assay	test-result
CCCCCCCCCCCCCC(=O)NCCCC[C@H](NC(=O)[C@H](Cc1c[nH]c2ccccc12)NC(=O)[C@H](CCCNC(=N)N)NC(=O)[C@H](Cc1c[nH]c2ccccc12)NC(=O)[C@H](CCCNC(=N)N)NC(=O)[C@H](Cc1c[nH]c2ccccc12)NC(=O)[C@@H](N)CCCNC(=N)N)C(N)=O (H-RWRWRWK(Myristoyl)-NH2)	Staphylococcus aureus	2

## Input Let me know recorded MIC for CCCCCCCC(=O)NCCCC[C@H](N)C(=O)N[C@@H](CCCNC(=N)N)C(=O)N[C@@H](Cc1c[nH]c2ccccc12)C(=O)N[C@@H](CCCNC(=N)N)C(=O)N[C@@H](Cc1c[nH]c2ccccc12)C(=O)N[C@@H](CCCNC(=N)N)C(=O)N[C@@H](Cc1c[nH]c2ccccc12)C(N)=O (H-K(Octanoyl)RWRWRW-NH2) , thanks.
## Output 2

## Input Let me know recorded MIC for CCCCCCCCCCCC(=O)NCCCC[C@H](N)C(=O)N[C@@H](CCCNC(=N)N)C(=O)N[C@@H](Cc1c[nH]c2ccccc12)C(=O)N[C@@H](CCCNC(=N)N)C(=O)N[C@@H](Cc1c[nH]c2ccccc12)C(=O)N[C@@H](CCCNC(=N)N)C(=O)N[C@@H](Cc1c[nH]c2ccccc12)C(N)=O (H-K(Lauroyl)RWRWRW-NH2) , thanks.
## Output 4

## Input Let me know recorded MIC for CCCCCCCCCCCCCC(=O)NCCCC[C@H](N)C(=O)N[C@@H](CCCNC(=N)N)C(=O)N[C@@H](Cc1c[nH]c2ccccc12)C(=O)N[C@@H](CCCNC(=N)N)C(=O)N[C@@H](Cc1c[nH]c2ccccc12)C(=O)N[C@@H](CCCNC(=N)N)C(=O)N[C@@H](Cc1c[nH]c2ccccc12)C(N)=O (H-K(Myristoyl)RWRWRW-NH2) , thanks.
## Output 9
